IC50: recorded values
# assayed_system: Three-prime repair exonuclease 1 (Homo sapiens)
# Sequence (Q9NSU2 whole entry): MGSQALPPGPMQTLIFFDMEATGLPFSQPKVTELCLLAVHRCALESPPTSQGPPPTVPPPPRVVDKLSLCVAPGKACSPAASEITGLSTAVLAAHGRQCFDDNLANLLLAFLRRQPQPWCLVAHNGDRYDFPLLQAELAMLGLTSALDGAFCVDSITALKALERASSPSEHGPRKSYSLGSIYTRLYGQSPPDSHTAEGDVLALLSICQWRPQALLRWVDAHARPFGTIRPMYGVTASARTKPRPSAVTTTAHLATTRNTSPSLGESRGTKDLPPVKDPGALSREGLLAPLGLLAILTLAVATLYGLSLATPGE

Below, 2 molecules whose answers are already recorded.
{"columns": ["molecule", "reported"],
 "data": [
  ["N[C@@H]1C[C@H]2C(=O)N([C@H](CS(=O)(=O)c3ccccc3O)C(=O)NCc3ccc(Cl)c(Cl)c3)CCC(CCc3ccccc3)N2C1 (stereo partly drawn)", "< 1000 nM"],
  ["N[C@@H]1C[C@H]2C(=O)N([C@H](CSc3ccccc3O)C(=O)NCc3ccc(Cl)c(Cl)c3)CCC(CCc3ccccc3)N2C1 (stereo partly drawn)", "< 1000 nM"]
]}

For the next question, use this molecule.
Lookup: Given N[C@@H]1C[C@H]2C(=O)N([C@H](CCC(=O)NO)C(=O)NCc3ccc(Cl)c(Cl)c3)CCC(COc3cccc(F)c3)N2C1 (stereo partly drawn) , state its recorded IC50.
Found: < 1000 nM

---

Measured IC50, listed per entry.
# assayed_system: Three-prime repair exonuclease 1 (Homo sapiens, UniProt Q9NSU2)
# Sequence (Q9NSU2 whole entry): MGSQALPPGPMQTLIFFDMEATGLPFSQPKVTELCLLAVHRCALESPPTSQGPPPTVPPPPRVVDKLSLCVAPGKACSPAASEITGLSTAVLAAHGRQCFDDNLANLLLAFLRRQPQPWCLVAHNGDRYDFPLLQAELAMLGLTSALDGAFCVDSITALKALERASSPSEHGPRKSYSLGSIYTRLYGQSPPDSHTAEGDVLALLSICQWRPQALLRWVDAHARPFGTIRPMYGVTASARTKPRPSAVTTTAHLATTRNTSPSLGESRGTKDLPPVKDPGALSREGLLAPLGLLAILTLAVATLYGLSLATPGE

Solved entries (count: 3):
{"columns": ["molecule", "IC50"],
 "data": [
  ["N[C@@H]1C[C@H]2C(=O)N([C@@H]3CCCN(S(=O)(=O)c4ccc(Cl)c(Cl)c4)C3)CCC(CCc3ccccc3)N2C1 (some centres not stated)", "< 1 µM"],
  ["N[C@@H]1C[C@H]2C(=O)N([C@H](CCC(=O)O)C(=O)NCc3cc(Cl)c(Cl)c[n+]3[O-])CCC(CCc3ccccc3)N2C1 (some centres not stated)", "< 1 µM"],
  ["N[C@@H]1C[C@H]2C(=O)N([C@@H](CCC(=O)O)C(=O)NCc3ccc(Cl)c(Cl)c3)CCC(CCc3ccccc3)N2C1 (some centres not stated)", "< 1 µM"]
]}

Lookup: Any idea what its IC50 is? The molecule is CCOC(=O)CC[C@H](C(=O)NCc1ccc(Cl)c(Cl)c1F)N1CCC(CCc2ccccc2)N2C[C@H](N)C[C@H]2C1=O (some centres not stated)
Found: < 1 µM

Lookup: Sample N[C@@H]1C[C@H]2C(=O)N([C@H](CCC(=O)O)C(=O)NCc3ccc(Cl)c(Cl)c3)CCC(COc3ccccc3F)N2C1 (some centres not stated) — what was its IC50?
Found: < 1 µM

Lookup: Request the reported IC50 associated with N[C@@H]1C[C@H]2C(=O)N([C@H](CCNC(=O)C3CC3)C(=O)NCc3ccc(Cl)c(Cl)c3)CCC(CCc3ccccc3)N2C1 (some centres not stated)
Found: < 1 µM

Lookup: Quick one: IC50 for COC(=O)CC[C@H](C(=O)NCc1ccc(Cl)c(Cl)c1)N1CCC(COc2cccc(F)c2)N2C[C@H](N)C[C@H]2C1=O (some centres not stated) ?
Found: < 1 µM

Lookup: Look at this molecule and give its reported IC50. CC(C)C[C@H](CNS(=O)(=O)c1ccc(Cl)c(Cl)c1)N1CCC(CCc2ccccc2)N2C[C@H](N)C[C@H]2C1=O (some centres not stated)
Found: < 1 µM

Lookup: Value lookup for IC50; key = CCOC(=O)CC[C@H](C(=O)NCc1ccc(Cl)c(Cl)n1)N1CCC(CCc2ccccc2)N2C[C@H](N)C[C@H]2C1=O (some centres not stated)
Found: < 1 µM

Lookup: I am curious: what IC50 value has been reported for N[C@@H]1C[C@H]2C(=O)N([C@H](CCC(=O)O)C(=O)NCc3ccc(Cl)c(Cl)c3)CCC(COc3cccc(F)c3)N2C1 (some centres not stated) ?
Found: < 1 µM

Lookup: I have this molecule here, COC(=O)CC[C@H](C(=O)NCc1ccc(Cl)c(Cl)c1)N1CCC(COc2ccc(F)cc2)N2C[C@H](N)C[C@H]2C1=O (some centres not stated) , and I need its recorded IC50.
Found: < 1 µM

Lookup: What does the record list as IC50 for CC(C)C[C@H](C(=O)NCc1ccc(Cl)c(Cl)c1)N1CCC(C[S+]([O-])c2ccccc2)N2C[C@H](N)C[C@H]2C1=O (some centres not stated) [US11583538, Example 125A] ?
Found: < 1 µM
